# experimental.target: T1, human CD5 on the cell surface (human, UniProt P06127 25-495)
# T1 construct: whole, on cells; One molecule for CD5 on all cell lines; also called natural CD5 on the cell membrane; CD5 antigen on Jurkat, CCRF-CEM, MOLT4 cells
# T1 sequence (looked up): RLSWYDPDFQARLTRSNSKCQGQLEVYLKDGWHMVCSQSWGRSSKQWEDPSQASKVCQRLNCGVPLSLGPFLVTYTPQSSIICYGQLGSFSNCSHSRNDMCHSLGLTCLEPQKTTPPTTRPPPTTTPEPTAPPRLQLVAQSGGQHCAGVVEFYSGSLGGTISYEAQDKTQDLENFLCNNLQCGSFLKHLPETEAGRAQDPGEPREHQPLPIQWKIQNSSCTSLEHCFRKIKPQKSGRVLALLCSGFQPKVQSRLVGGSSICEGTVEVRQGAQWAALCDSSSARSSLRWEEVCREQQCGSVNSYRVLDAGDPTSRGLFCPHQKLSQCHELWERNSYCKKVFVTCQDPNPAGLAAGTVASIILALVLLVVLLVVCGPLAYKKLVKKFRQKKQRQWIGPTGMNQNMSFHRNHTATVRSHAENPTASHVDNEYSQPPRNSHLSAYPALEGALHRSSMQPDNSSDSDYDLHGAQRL
# assay.protocol: phage FACS on Jurkat cells (CD5 positive), anti-M13 + FITC anti-mouse IgG, median of FITC-A
Each entry below carries its reported Median (B1-A).
Respond with the number and no other words.

>>> obs_value("phage monoclone #10 (scFv, also called scFv10) scFv: QSVVTQPPSVSGAPGQRVTISCTGSSSNIGAGYDVHWYQQLPGTAPKLLIYGNINRPSGVPDRFSGSKSGTSASLAITGLQAEDEADYYCGTWDNSLSAHYVFGTGTKVTVLGSRGGGGSGGGGSGGGGSLEEVQLLESGGGLVKPGGSLRLSCAASGFTFNNYTMNWVRQAPGKGLEWVSSISSSSSYIYYADSVKGRFTISRDNAKNSLFLQMNSLRGEDTAVYYCARYFSGSAGDYWGQGTLVTVSS")
31.6

[ask] Median (B1-A) for phage monoclone #6 (scFv, also called scFv6) scFv: NFMLTQPHSVSESPGKTVTISCTGNSGSIARNYVQWYQQRPGSAPTMLIYEDNRRPSGVPDRFSGSIDSSSNSASLTISGLKTEDEADYYCQSYDDNTSWVFGGGTKLTVLGSRGGGGSGGGGSGGGGSLEMAEVQLVQSGAEVKKPGSSVKVSCKASGGTFSSNAITWVRQAPGQGLEWMGGIIPMFGTTDYAQKFQGRVTMTADESTSTAYMELRSLRSEDTAVYYCARDGGGRHPYYYYGMDVWGQGTTVTVSS ?
[reply] 71.8

[ask] Median (B1-A) for phage monoclone #9 (scFv, also called scFv9) scFv: QPVLTQPPSVSGSPGQSVTISCTGTSDDIGNYKRVSWYQQPPGTAPKLMIYEVTNRPPGVPNRFSGSKSGNTASLTISGLQAEDEADYYCSSYASGDTYVFGTGTKVTVLGSRGGGGSGGGGSGGGGSLEQVQLVQSGAEVEKPGASVKISCKASTYTFTNYYIHWVRQAPGQGLEWMGMINPSGDTTSYAQKFQGRVTMTRDTSTSTVYMELSSLRSEDTAVYYCARLSWYWGGSFDDWGQGTLVTVSS ?
[reply] 12.8

[ask] Median (B1-A) for phage monoclone #7 (scFv, also called scFv7) scFv: QSVVTQPPSVSAAPGQKATISCSGSSSNIGNNDVSWYQQLPGTAPKLLIQDNDKRPSGIPDRFSGSKSGTSATLGITGLQTGDEADYYCAVWDSSLSAAVFGPGTKVTVLGSRGGGGSGGGGSGGGGSLEMAEVQLVQSGAEVKKPGESLKISCKGSGYSFTSYWIGWVRQMPGKGLEWMGIIYPDDSDTTYSPSFQGQVTMSVDKSISTAYLQWNSLQASDTAMYYCARMSLTSYLATDGWGQGTLVTVSS ?
[reply] 28.3

Ref: patent US20240002505A1
